test system: P388; assay: In vivo antitumor activity against mouse P388 cells allografted in BDF/CDF mouse assessed as host survival time at 0.25 mg/kg, ip administered on days 1 to 9 relative to control; type: functional; settings: route intraperitoneal

# Molecule, T/C (%)
rows = [
    ("COc1cccc2c1C(=O)c1c(O)c3c(c(O)c1C2=O)C[C@@](O)(/C(C)=N/NC(=O)c1cccc([N+](=O)[O-])c1)C[C@@H]3O[C@H]1C[C@H](N)[C@H](O)[C@H](C)O1.Cl", 130),
    ("COc1cccc2c1C(=O)c1c(O)c3c(c(O)c1C2=O)C[C@@](O)(/C(CO)=N/NC(=O)c1ccc(Cl)c(Cl)c1)C[C@@H]3O[C@H]1C[C@H](N)[C@H](O)[C@H](C)O1.Cl", 125),
    ("COc1cccc2c1C(=O)c1c(O)c3c(c(O)c1C2=O)C[C@@](O)(C(C)=O)C[C@@H]3O[C@H]1C[C@H](N)[C@H](O)[C@H](C)O1", 152),
    ("COc1cccc2c1C(=O)c1c(O)c3c(c(O)c1C2=O)C[C@@](O)(/C(C)=N/NC(=O)c1ccc(N(C)C)cc1)C[C@@H]3O[C@H]1C[C@H](N)[C@H](O)[C@H](C)O1.Cl", 111),
    ("CCc1ccc(C(=O)N/N=C(\\C)[C@]2(O)Cc3c(O)c4c(c(O)c3[C@@H](O[C@H]3C[C@H](N)[C@H](O)[C@H](C)O3)C2)C(=O)c2c(OC)cccc2C4=O)cc1.Cl", 139),
    ("COc1cccc2c1C(=O)c1c(O)c3c(c(O)c1C2=O)C[C@@](O)(/C(C)=N/NC(=O)c1ccc(O)cc1)C[C@@H]3O[C@H]1C[C@H](N)[C@H](O)[C@H](C)O1.Cl", 111),
    ("COc1cccc2c1C(=O)c1c(O)c3c(c(O)c1C2=O)C[C@@](O)(C(=O)CO)C[C@@H]3O[C@H]1C[C@H](N)[C@H](O)[C@H](C)O1.Cl [DOXORUBICIN HYDROCHLORIDE]", 170),
    ("COc1cccc2c1C(=O)c1c(O)c3c(c(O)c1C2=O)C[C@@](O)(/C(C)=N/NC(=O)c1ccc(Cl)cc1)C[C@@H]3O[C@H]1C[C@H](N)[C@H](O)[C@H](C)O1.Cl", 145),
    ("COc1cccc2c1C(=O)c1c(O)c3c(c(O)c1C2=O)C[C@@](O)(/C(CO)=N/NC(=O)c1ccccc1)C[C@@H]3O[C@H]1C[C@H](N)[C@H](O)[C@H](C)O1.Cl", 99),
    ("CCCCOc1ccc(C(=O)N/N=C(\\C)[C@]2(O)Cc3c(O)c4c(c(O)c3[C@@H](O[C@H]3C[C@H](N)[C@H](O)[C@H](C)O3)C2)C(=O)c2c(OC)cccc2C4=O)cc1.Cl", 143),
    ("COc1cccc2c1C(=O)c1c(O)c3c(c(O)c1C2=O)C[C@@](O)(/C(C)=N/NC(=O)c1ccccc1)C[C@@H]3O[C@H]1C[C@H](N)[C@H](O)[C@H](C)O1.Cl [ZORUBICIN HYDROCHLORIDE]", 133),
    ("COc1ccc(C(=O)N/N=C(\\C)[C@]2(O)Cc3c(O)c4c(c(O)c3[C@@H](O[C@H]3C[C@H](N)[C@H](O)[C@H](C)O3)C2)C(=O)c2c(OC)cccc2C4=O)cc1.Cl", 129),
    ("COc1cccc2c1C(=O)c1c(O)c3c(c(O)c1C2=O)C[C@@](O)(/C(C)=N/NC(=O)c1ccc(-c2ccccc2)cc1)C[C@@H]3O[C@H]1C[C@H](N)[C@H](O)[C@H](C)O1.Cl", 134),
    ("COc1cccc2c1C(=O)c1c(O)c3c(c(O)c1C2=O)C[C@@](O)(/C(C)=N/NC(=O)c1ccc(Cl)c(Cl)c1)C[C@@H]3O[C@H]1C[C@H](N)[C@H](O)[C@H](C)O1.Cl", 137),
]
